Catalogue of melting point values
property: melting point

* COc1cc(NC=CS(=O)(=O)F)c(C(C)=O)cc1OC | 142 to 146 °C
* O=C1c2ccc(OCCO)cc2C(=O)c2cc3ccccc3cc21 | 209 °C
* O=C1NC(=O)c2ccc(Br)cc2/C1=C/Nc1ccc(CN2CCCC2)cc1 | 165 to 166 °C
* CC1(C)[C@@H]2[C@H]1[C@@H](O)O[C@H]2C(Cl)(Cl)Cl | 100 to 105 °C
* COC1(OC)CCN(Cc2ccccc2)CC1O (stereo not given) | 90.1 °C
* O=C(NCCOc1ccc(CC(Oc2cccc(F)c2)C(=O)O)cc1)c1ccc(-c2ccccn2)cc1 (stereo not given) | 136 to 138 °C
* Clc1ccc(N2CCN(Cc3coc4cccnc34)CC2)cc1 | 128 to 129 °C
* O=Cc1ccc2c(c1)Sc1ccccc1CC2 | 55.5 to 56.5 °C
* COc1ccc2nc(N3CCNCC3)ccc2c1 | 95 to 97 °C
* CCOC(=O)c1nn(Cc2cn(C(c3ccccc3)(c3ccccc3)c3ccccc3)cn2)c2cc(OC)c(OC)cc12 | 184 to 186 °C
